TARGET: δ opioid receptor (DOR) (Homo sapiens, UniProt P41143)
TEST_DESCRIPTION: Radioligand competition binding, DOR ([3H]-DADLE), HEK293 cell homogenates
EXPERIMENTAL_CONTEXT: at 10,000 nM
Could you label it y if measured DOR % (percent inhibition) is 10% or higher, and n otherwise?

These solved cases illustrate the format of a correct answer.
1. C#Cc1ccc2c(c1)C(c1ccccc1F)=N[C@@H](C)c1c(-c3nc(C(C)C)no3)ncn1-2 ... y
2. C#Cc1ccc2c(c1)C(c1ccccc1F)=N[C@H](C)c1c(-c3nc(C(C)C)no3)ncn1-2 ... n
3. CCOC(=O)c1ncn2c1[C@H](C)N=C(c1ccccc1F)c1cc(C3CC3)ccc1-2 ... y
4. C#Cc1ccc2c(c1)C(c1ccccc1F)=N[C@@H](C)c1c(-c3nc(C)no3)ncn1-2 ... n
5. C[C@H]1N=C(c2ccccc2F)c2cc(Br)ccc2-n2cnc(-c3cnco3)c21 ... y
6. Cc1noc(-c2ncn3c2[C@@H](C)N=C(c2ccccn2)c2cc(C4CC4)ccc2-3)n1 ... y
7. C[C@@H]1N=C(c2ccccc2F)c2cc(Br)ccc2-n2cnc(-c3cnco3)c21 ... n

With those in mind, consider the next molecule.
Assess whether reported DOR % (percent inhibition) for CCOC(=O)c1ncn2c1[C@@H](C)N=C(c1ccccc1F)c1cc(C3CC3)ccc1-2 sits at 10% or higher.
y

* * *

TARGET: µ opioid receptor (MOR) (Homo sapiens)
TEST_DESCRIPTION: Radioligand competition binding, MOR ([3H]-DAMGO), HEK293 cell homogenates
EXPERIMENTAL_CONTEXT: read-out: MOR % (percent inhibition), at 10,000 nM; [3H]-DAMGO
Form field: inhibition at 10 µM (one value per entry).
Write the answer as a number in %, unit excluded.

Examples from the recorded data:
1) C#Cc1ccc2c(c1)C(c1ccccc1F)=N[C@H](C)c1c(C(=O)NC3CC3)ncn1-2 ... 0
2) C#Cc1ccc2c(c1)C(c1ccccn1)=NCc1c(C(=O)OC)ncn1-2 ... 0
3) C[C@H]1N=C(c2ccccn2)c2cc(Br)ccc2-n2cnc(C(=O)O)c21 ... 0
4) C#Cc1ccc2c(c1)C(c1ccccc1F)=N[C@@H](C)c1c(C(=O)NCC)ncn1-2 ... 22
5) C#Cc1ccc2c(c1)C(c1ccccc1F)=N[C@H](C)c1c(C(N)=O)ncn1-2 ... 2
6) Cc1ncoc1-c1ncn2c1CN=C(c1ccccn1)c1cc(Br)ccc1-2 ... 7
7) C#Cc1ccc2c(c1)C(c1ccccc1F)=N[C@@H](C)c1c(C(=O)OCCC)ncn1-2 ... 9
8) C#Cc1ccc2c(c1)C(c1ccccc1F)=N[C@H](C)c1c(C(=O)N(C)C)ncn1-2 ... 6
9) C#Cc1ccc2c(c1)C(c1ccccc1F)=N[C@@H](C)c1c(C(=O)NC)ncn1-2 ... 0

Now let's try a different one.
Bench note: what inhibition at 10 µM did C#Cc1ccc2c(c1)C(c1ccccc1F)=N[C@@H](C)c1c(C(=O)OC)ncn1-2 show?
0

* * *

TARGET: κ opioid receptor (KOR) (Homo sapiens, UniProt P41145)
TEST_DESCRIPTION: Radioligand competition binding, KOR ([3H]-U69593), HEK293 cell homogenates
EXPERIMENTAL_CONTEXT: read-out: KOR % (percent inhibition), at 10,000 nM; [3H]-U69593
ENDPOINT: inhibition at 10 µM (%)
Write the answer as a number in %, unit excluded.

Examples from the recorded data:
1) C#Cc1ccc2c(c1)C(c1ccccn1)=NCc1c(-c3nc(CC)no3)ncn1-2 [MP-III-080] ... 47
2) C[C@H]1N=C(c2ccccc2F)c2cc(Cl)ccc2-n2cnc(C(=O)O)c21 [GL-III-54] ... 22
3) Fc1ccccc1C1=NCc2c(-c3cnco3)ncn2-c2ccc(Br)cc21 [SH-I-85] ... 91
4) C#Cc1ccc2c(c1)C(c1ccccc1F)=N[C@@H](C)c1c(C(=O)NC)ncn1-2 [MP-III-023] ... 91
5) CCOC(=O)c1ncn2c1[C@@H](C)N=C(c1ccccc1F)c1cc(C3CC3)ccc1-2 [GL-III-42] ... 86
6) C#Cc1ccc2c(c1)C(c1ccccc1F)=N[C@H](C)c1c(C(=O)OCC)ncn1-2 [SH-053-2′F-R-CH3] ... 89
7) C#Cc1ccc2c(c1)C(c1ccccc1F)=N[C@@H](C)c1c(C(=O)OC(C)(C)C)ncn1-2 [GL-I-30] ... 95
8) C#Cc1ccc2c(c1)C(c1ccccc1F)=N[C@@H](C)c1c(C(=O)OCC(F)(F)F)ncn1-2 [GL-I-36] ... 85

Now let's try a different one.
Bench note: what inhibition at 10 µM did C#Cc1ccc2c(c1)C(c1ccccn1)=N[C@H](C)c1c(C(=O)O)ncn1-2 [GL-II-30] show?
0

* * *

TARGET: κ opioid receptor (KOR) (Homo sapiens, UniProt P41145)
TEST_DESCRIPTION: Radioligand competition binding, KOR ([3H]-U69593), HEK293 cell homogenates
EXPERIMENTAL_CONTEXT: at 10,000 nM; [3H]-U69593
ENDPOINT: KOR % (percent inhibition)
Provide a numeric answer, followed by its unit.

Bench note: what KOR % (percent inhibition) did CCOC(=O)c1ncn2c1[C@H](C)N=C(c1ccccc1F)c1cc(Br)ccc1-2 [SH-I-048B] show?
95%

Bench note: what KOR % (percent inhibition) did C#Cc1ccc2c(c1)C(c1ccccn1)=N[C@H](C)c1c(-c3nc(CC)no3)ncn1-2 show?
80%

Bench note: what KOR % (percent inhibition) did C#Cc1ccc2c(c1)C(c1ccccc1F)=N[C@@H](C)c1c(-c3nc(CC)no3)ncn1-2 show?
92%

Bench note: what KOR % (percent inhibition) did C#Cc1ccc2c(c1)C(c1ccccc1F)=N[C@@H](C)c1c(-c3nc(C)no3)ncn1-2 show?
88%

Bench note: what KOR % (percent inhibition) did C#Cc1ccc2c(c1)C(c1ccccc1F)=N[C@H](C)c1c(-c3cnco3)ncn1-2 show?
74%

Bench note: what KOR % (percent inhibition) did Cc1noc(-c2ncn3c2[C@@H](C)N=C(c2ccccc2F)c2cc(Br)ccc2-3)n1 show?
87%

Bench note: what KOR % (percent inhibition) did Cc1noc(-c2ncn3c2[C@@H](C)N=C(c2ccccn2)c2cc(C4CC4)ccc2-3)n1 show?
60%

Bench note: what KOR % (percent inhibition) did C#Cc1ccc2c(c1)C(c1ccccc1F)=N[C@H](C)c1c(-c3nc(C)no3)ncn1-2 show?
86%

* * *

Tested on: synaptic benzodiazepine-sensitive receptors (BZR), GABAAR
TEST_DESCRIPTION: 3H-flunitrazepam binding, rat brain homogenate
EXPERIMENTAL_CONTEXT: at 10,000 nM
ENDPOINT: BZR % (percent inhibition) (%)
Write the answer as a number in %, unit excluded.

1. C[C@H]1N=C(c2ccccc2F)c2cc(C3CC3)ccc2-n2cnc(C(=O)N(C)C)c21 [GL-III-70] ... 100
2. C[C@H]1N=C(c2ccccc2F)c2cc(Cl)ccc2-n2cnc(C(=O)O)c21 [GL-III-54] ... 100
3. C#Cc1ccc2c(c1)C(c1ccccc1F)=N[C@H](C)c1c(C(=O)N3CCCC3)ncn1-2 [GL-II-76] ... 43
4. C#Cc1ccc2c(c1)C(c1ccccc1F)=N[C@@H](C)c1c(-c3nc(C)no3)ncn1-2 [GL-I-65] ... 79
5. C#Cc1ccc2c(c1)C(c1ccccc1F)=N[C@H](C)c1c(C(=O)NC3CC3)ncn1-2 [GL-II-75] ... 85
6. C[C@H]1N=C(c2ccccn2)c2cc(Br)ccc2-n2cnc(C(=O)O)c21 [GL-II-51] ... 84
7. Cc1noc(-c2ncn3c2[C@@H](C)N=C(c2ccccn2)c2cc(C4CC4)ccc2-3)n1 [GL-III-64] ... 92
8. C#Cc1ccc2c(c1)C(c1ccccn1)=NCc1c(-c3cnco3)ncn1-2 [KRM-III-67] ... 71
9. C#Cc1ccc2c(c1)C(c1ccccc1F)=N[C@H](C)c1c(-c3cnco3)ncn1-2 [GL-III-73] ... 65
10. C#Cc1ccc2c(c1)C(c1ccccc1F)=N[C@H](C)c1c(-c3nc(C(C)C)no3)ncn1-2 [MP-IV-010] ... 64

Now let's try a different one.
Bench note: what BZR % (percent inhibition) did C#Cc1ccc2c(c1)C(c1ccccc1F)=N[C@@H](C)c1c(C(=O)NCC)ncn1-2 [GL-I-43] show?
94

* * *

Form field: inhibition at 10 µM (one value per entry).
TARGET: κ opioid receptor (KOR) (Homo sapiens)
TEST_DESCRIPTION: Radioligand competition binding, KOR ([3H]-U69593), HEK293 cell homogenates
EXPERIMENTAL_CONTEXT: read-out: KOR % (percent inhibition), at 10,000 nM; [3H]-U69593
Write the answer as a number in %, unit excluded.

1. C#Cc1ccc2c(c1)C(c1ccccc1)=NCc1c(-c3cnco3)ncn1-2 [KRM-II-82] ... 78

Bench note: what inhibition at 10 µM did CCOC(=O)c1ncn2c1[C@@H](C)N=C(c1ccccc1F)c1cc(Br)ccc1-2 [SH-I-047] show?
82

Bench note: what inhibition at 10 µM did C#Cc1ccc2c(c1)C(c1ccccc1F)=N[C@H](C)c1c(C(=O)N3CCCC3)ncn1-2 [GL-II-76] show?
80

Bench note: what inhibition at 10 µM did C#Cc1ccc2c(c1)C(c1ccccc1F)=N[C@H](C)c1c(C(=O)NCC)ncn1-2 [GL-II-74] show?
86

Bench note: what inhibition at 10 µM did C#Cc1ccc2c(c1)C(c1ccccn1)=NCc1c(C(=O)O)ncn1-2 [SR-II-54] show?
9

Bench note: what inhibition at 10 µM did C#Cc1ccc2c(c1)C(c1ccccc1F)=N[C@H](C)c1c(C(=O)O)ncn1-2 [SH-053-2′F-R-CH3-Acid] show?
16

Bench note: what inhibition at 10 µM did CCNC(=O)c1ncn2c1[C@@H](C)N=C(c1ccccc1F)c1cc(C3CC3)ccc1-2 [GL-III-68] show?
88
